Biological target: HIV-1 RT (Human immunodeficiency virus type 1 group M subtype B)
Assay: In vitro HIV-1 reverse transcriptase (HIV-1 RT) kit assay
Type: biochemical
Details: 1 μM
Experimental: In Vitro HIV-1 Reverse Transcriptase (HIV-1 RT) Kit Assay The HIV-RT inhibition assay was performed using an RT assay kit (Roche) according to the protocol of the kit. […] After 1 h of incubation at 37° C., the reaction mixture was transferred to a streptavidine-coated microtiter plate (MTP). […] The percentage inhibitory activity of the RT inhibitors was calculated by comparing it to that of the sample without an inhibitor.
Readings of Inhibition rate (%) (HIV-RT kit assay) (1 μM) for the listed molecules
Hi! Could you send only the number? It should be in %, unit omitted.

>>> value_observed("Cc1cc(C#N)cc(C)c1Oc1cc(Oc2c(C)cc(C#N)cc2C)c2ccccc2n1")
40.31
>>> value_observed("Cc1cc(C#N)cc(C)c1Oc1cc(Nc2ccc(C#N)cc2)nc2ccccc12")
47.16
>>> value_observed("Cc1cc(C=O)cc(C)c1Oc1cc(Oc2c(C)cc(C=O)cc2C)c2ccccc2n1")
42.08
>>> value_observed("N#Cc1ccc(Oc2cc(Nc3ccc(C#N)cn3)nc3ccccc23)cc1")
27.61
>>> value_observed("N#Cc1ccc(Nc2cc(Oc3ccc(C#N)cc3)c3ccccc3n2)cc1")
39.71

--- query ---
q: For the molecule "Cc1cc(C=O)cc(C)c1Oc1cc(Nc2ccc(C#N)cn2)nc2ccccc12" , what Inhibition rate (%) (HIV-RT kit assay) (1 μM) is on record?
a: 62.23
